Provenance of the data: PubChem BioAssay AID2060499

# Tested on: 777334-354-R2-J4-PDC tumor spheroids with HUVEC/MSC, viability
# test.details: Anticancer human tumor 777334-354-R2-J4-PDC patient-derived pancreatic adenocarcinoma cell line growth inhibition [GQUAD]
# measurement.setup: second compound 0.0316 µM; first compound 0.0999 µM; stronger effect = lower value
value.kind: viability, T/C

| molecule | viability, T/C |
| --- | --- |
| Cn1ncnc1[C@H]1c2n[nH]c(=O)c3cc(F)cc(c23)N[C@@H]1c1ccc(F)cc1 + Cc1cnc(CNC(=O)c2c(=O)c3ccc(N4CCCN(C)CC4)nc3n3c2sc2ccccc23)cn1 | 104% |

So what's the measured viability, T/C for this one? CC[C@@]1(O)C(=O)OCc2c1cc1n(c2=O)Cc2cc3c(CN(C)C)c(O)ccc3nc2-1 + CN(C)c1ccc(Nc2c3ccc(NC(=O)CCN4CCCC4)cc3nc3cc(NC(=O)CCN4CCCC4)ccc23)cc1
56%

Dear colleague, I am looking for the recorded viability, T/C of the following molecule: Cn1ncnc1[C@H]1c2n[nH]c(=O)c3cc(F)cc(c23)N[C@@H]1c1ccc(F)cc1 + Cc1[nH]c2ccc(F)cc2c1-c1nc2c3cccnc3c3ncccc3c2[nH]1
81.6%

Value lookup for viability, T/C; key = Cc1[nH]c2ccccc2c1CCNCc1ccc(/C=C/C(=O)NO)cc1 + Cc1[nH]c2ccc(F)cc2c1-c1nc2c3cccnc3c3ncccc3c2[nH]1
74.5%

What value of viability, T/C has been recorded for this entry: CC[C@@]1(O)C(=O)OCc2c1cc1n(c2=O)Cc2cc3c(CN(C)C)c(O)ccc3nc2-1 + Cc1[nH]c2ccc(F)cc2c1-c1nc2c3cccnc3c3ncccc3c2[nH]1
69.6%

Quick one: viability, T/C for CCc1c2c(nc3ccc(O)cc13)-c1cc3c(c(=O)n1C2)COC(=O)[C@]3(O)CC + Cc1[nH]c2ccc(F)cc2c1-c1nc2c3cccnc3c3ncccc3c2[nH]1 ?
15%

// viability, T/C lookup, key: Cc1[nH]c2ccccc2c1CCNCc1ccc(/C=C/C(=O)NO)cc1 + CN(C)c1ccc(Nc2c3ccc(NC(=O)CCN4CCCC4)cc3nc3cc(NC(=O)CCN4CCCC4)ccc23)cc1
75.8%

What value of viability, T/C has been reported for the following molecule? CCc1c2c(nc3ccc(O)cc13)-c1cc3c(c(=O)n1C2)COC(=O)[C@]3(O)CC + CN(C)c1ccc(Nc2c3ccc(NC(=O)CCN4CCCC4)cc3nc3cc(NC(=O)CCN4CCCC4)ccc23)cc1
15.9%

What measured viability, T/C goes with CC[C@@]1(O)C(=O)OCc2c1cc1n(c2=O)Cc2cc3c(CN(C)C)c(O)ccc3nc2-1 + Cc1cnc(CNC(=O)c2c(=O)c3ccc(N4CCCN(C)CC4)nc3n3c2sc2ccccc23)cn1 ?
59.4%

* * *

# Tested on: 777334-354-R2-J4-PDC tumor spheroids with HUVEC/MSC, viability
# test.details: Anticancer human tumor 777334-354-R2-J4-PDC cell line growth inhibition [GQUAD];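 note: spheroids exposed to compounds for 7 days before readout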
# measurement.setup: second compound 0.316 µM; first compound 0.00999 µM; stronger effect = lower value
value.kind: viability, T/C

Field: example entries. Status: answers known.
| compound | value.kind | value.observed |
| --- | --- | --- |
| CC[C@@]1(O)C(=O)OCc2c1cc1n(c2=O)Cc2cc3c(CN(C)C)c(O)ccc3nc2-1 + CN(C)c1ccc(Nc2c3ccc(NC(=O)CCN4CCCC4)cc3nc3cc(NC(=O)CCN4CCCC4)ccc23)cc1 | viability, T/C | 95.1% |
| Cn1ncnc1[C@H]1c2n[nH]c(=O)c3cc(F)cc(c23)N[C@@H]1c1ccc(F)cc1 + CN(C)c1ccc(Nc2c3ccc(NC(=O)CCN4CCCC4)cc3nc3cc(NC(=O)CCN4CCCC4)ccc23)cc1 | viability, T/C | 93.1% |

Shift focus to the following entry.
Sample Cc1[nH]c2ccccc2c1CCNCc1ccc(/C=C/C(=O)NO)cc1 + Cc1cnc(CNC(=O)c2c(=O)c3ccc(N4CCCN(C)CC4)nc3n3c2sc2ccccc23)cn1 — what was its viability, T/C?
58.2%
